The following compounds have recorded Ki on Vasopressin V1a receptor (Homo sapiens, UniProt P37288).
Sequence (P37288 whole entry): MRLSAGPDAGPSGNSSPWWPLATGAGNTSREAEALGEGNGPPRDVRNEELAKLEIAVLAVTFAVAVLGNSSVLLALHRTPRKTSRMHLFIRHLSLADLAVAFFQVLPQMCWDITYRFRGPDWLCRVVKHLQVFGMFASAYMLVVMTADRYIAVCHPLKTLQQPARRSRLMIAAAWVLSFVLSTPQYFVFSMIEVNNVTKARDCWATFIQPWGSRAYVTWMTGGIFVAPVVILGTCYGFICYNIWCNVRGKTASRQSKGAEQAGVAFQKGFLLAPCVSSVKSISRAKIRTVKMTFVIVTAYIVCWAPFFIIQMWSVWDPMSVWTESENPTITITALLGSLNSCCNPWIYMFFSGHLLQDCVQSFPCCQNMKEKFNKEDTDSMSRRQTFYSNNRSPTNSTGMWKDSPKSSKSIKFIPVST
Express your answer in nM, writing the number without its unit.

Worked cases, answers included:
[
  {
    "Line notation": "COc1cc(OC2CCN(S(C)(=O)=O)CC2)ccc1CC(=O)N1CCC(N2C(=O)CCc3ccccc32)CC1",
    "Ki [nM]": 4800
  },
  {
    "Line notation": "CS(=O)(=O)N1CCC(Oc2ccc(CC(=O)N3CCC(N4C(=O)CCc5ccccc54)CC3)c(OC/C=C\\I)c2)CC1",
    "Ki [nM]": 530
  },
  {
    "Line notation": "CS(=O)(=O)N1CCC(Oc2ccc(CC(=O)N3CCC(N4C(=O)CCc5ccccc54)CC3)c(OC/C=C/I)c2)CC1",
    "Ki [nM]": 790
  }
]

Query compound follows.
Enquiry: // query Ki value for entry CS(=O)(=O)N1CCC(Oc2ccc(CC(=O)N3CCC(N4C(=O)CCc5ccccc54)CC3)c(OCCF)c2)CC1
Return: 8700

* * *

Target under test: Oxytocin receptor (Homo sapiens, UniProt P30559)
Sequence (P30559 whole entry): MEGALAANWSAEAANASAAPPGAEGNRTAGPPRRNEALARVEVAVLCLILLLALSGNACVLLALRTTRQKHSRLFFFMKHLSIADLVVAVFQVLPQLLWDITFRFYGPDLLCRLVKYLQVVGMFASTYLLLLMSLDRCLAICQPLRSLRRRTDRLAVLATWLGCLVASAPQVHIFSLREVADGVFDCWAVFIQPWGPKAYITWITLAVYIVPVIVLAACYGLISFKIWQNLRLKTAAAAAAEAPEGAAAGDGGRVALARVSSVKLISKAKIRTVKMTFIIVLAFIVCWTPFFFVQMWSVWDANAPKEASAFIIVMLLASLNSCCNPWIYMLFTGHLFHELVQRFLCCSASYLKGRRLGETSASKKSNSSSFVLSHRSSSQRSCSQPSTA
Recorded measurements of pKi, one per entry
Scale explanation: pKi corresponds to minus log10 of a concentration expressed in moles per litre.

Worked cases, answers included:
[
  {
    "Line notation": "CS(=O)(=O)N1CCC(Oc2ccc(CC(=O)N3CCC(N4C(=O)CCc5ccccc54)CC3)c(OCCF)c2)CC1",
    "Readout value": 7.80
  },
  {
    "Line notation": "CS(=O)(=O)N1CCC(Oc2ccc(CC(=O)N3CCC(N4C(=O)CCc5ccccc54)CC3)c(OC/C=C/I)c2)CC1",
    "Readout value": 8.00
  },
  {
    "Line notation": "CS(=O)(=O)N1CCC(Oc2ccc(CC(=O)N3CCC(N4C(=O)CCc5ccccc54)CC3)c(OC/C=C\\I)c2)CC1",
    "Readout value": 8.24
  }
]

Enquiry: // query pKi value for entry COc1cc(OC2CCN(S(C)(=O)=O)CC2)ccc1CC(=O)N1CCC(N2C(=O)CCc3ccccc32)CC1
Return: 7.55

Enquiry: Same question, CS(=O)(=O)N1CCC(Oc2ccc(CC(=O)N3CCC(N4C(=O)CCc5ccccc54)CC3)c(O)c2)CC1 this time
Return: 7.11

* * *

Recorded measurements of pKi, one per entry
Target under test: Vasopressin V2 receptor (Homo sapiens, UniProt P30518)
Sequence (P30518 whole entry): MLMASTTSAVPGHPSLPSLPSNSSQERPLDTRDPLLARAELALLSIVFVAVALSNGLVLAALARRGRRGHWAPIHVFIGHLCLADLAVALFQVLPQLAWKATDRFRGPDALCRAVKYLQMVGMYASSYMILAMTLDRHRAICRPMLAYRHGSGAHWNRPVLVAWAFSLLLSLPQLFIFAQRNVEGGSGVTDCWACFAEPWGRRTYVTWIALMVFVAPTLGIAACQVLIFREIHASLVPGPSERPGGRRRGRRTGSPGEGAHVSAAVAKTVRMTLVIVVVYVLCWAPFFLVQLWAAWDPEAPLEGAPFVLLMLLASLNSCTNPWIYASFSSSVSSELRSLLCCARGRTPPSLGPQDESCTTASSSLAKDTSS
Scale explanation: pKi corresponds to minus log10 of a concentration expressed in moles per litre.

Worked cases, answers included:
[
  {
    "Line notation": "CS(=O)(=O)N1CCC(Oc2ccc(CC(=O)N3CCC(N4C(=O)CCc5ccccc54)CC3)c(OC/C=C/I)c2)CC1",
    "pKi": 5.85
  },
  {
    "Line notation": "CS(=O)(=O)N1CCC(Oc2ccc(CC(=O)N3CCC(N4C(=O)CCc5ccccc54)CC3)c(OC/C=C\\I)c2)CC1",
    "pKi": 6.24
  },
  {
    "Line notation": "COc1cc(OC2CCN(S(C)(=O)=O)CC2)ccc1CC(=O)N1CCC(N2C(=O)CCc3ccccc32)CC1",
    "pKi": 5.43
  }
]

Enquiry: // query pKi value for entry CS(=O)(=O)N1CCC(Oc2ccc(CC(=O)N3CCC(N4C(=O)CCc5ccccc54)CC3)c(OCCF)c2)CC1
Return: 5.74

* * *

Method: Octanol-water partition coefficient, log P of the compound at 5 to 10 uCi at pH 7.4 after 3 mins
Assay type: physicochemical
Quantity kind: logD at 0.05 h
Quick one: just the number, no unit, thanks!

Worked cases, answers included:
[
  {
    "Line notation": "COc1cc(OC2CCN(S(C)(=O)=O)CC2)ccc1CC(=O)N1CCC(N2C(=O)CCc3ccccc32)CC1",
    "logD at 0.05 h": 2.25
  },
  {
    "Line notation": "CS(=O)(=O)N1CCC(Oc2ccc(CC(=O)N3CCC(N4C(=O)CCc5ccccc54)CC3)c(OC/C=C/I)c2)CC1",
    "logD at 0.05 h": 2.36
  },
  {
    "Line notation": "CS(=O)(=O)N1CCC(Oc2ccc(CC(=O)N3CCC(N4C(=O)CCc5ccccc54)CC3)c(OCCF)c2)CC1",
    "logD at 0.05 h": 2.02
  }
]

Query molecule follows.
Enquiry: // query logD at 0.05 h value for entry CS(=O)(=O)N1CCC(Oc2ccc(CC(=O)N3CCC(N4C(=O)CCc5ccccc54)CC3)c(OC/C=C\I)c2)CC1
Return: 2.18

* * *

The following molecules have recorded pKi on Vasopressin V1a receptor (Microtus ochrogaster).
Sequence (Q9WTV9 whole entry): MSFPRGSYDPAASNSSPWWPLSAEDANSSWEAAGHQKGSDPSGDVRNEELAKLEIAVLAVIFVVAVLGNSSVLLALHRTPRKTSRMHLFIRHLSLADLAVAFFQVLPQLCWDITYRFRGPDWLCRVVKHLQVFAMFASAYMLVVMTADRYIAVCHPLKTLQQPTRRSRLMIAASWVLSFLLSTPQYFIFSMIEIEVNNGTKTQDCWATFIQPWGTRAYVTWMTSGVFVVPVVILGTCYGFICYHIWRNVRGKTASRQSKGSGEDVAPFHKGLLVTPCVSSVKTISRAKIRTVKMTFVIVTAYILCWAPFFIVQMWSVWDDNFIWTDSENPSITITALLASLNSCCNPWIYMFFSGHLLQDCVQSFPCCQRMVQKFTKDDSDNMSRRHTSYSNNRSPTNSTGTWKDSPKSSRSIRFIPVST
Scale explanation: pKi corresponds to minus log10 of a concentration expressed in moles per litre.

Enquiry: Query the reported pKi for Vasopressin V1a receptor (Microtus ochrogaster); item: CS(=O)(=O)N1CCC(Oc2ccc(CC(=O)N3CCC(N4C(=O)CCc5ccccc54)CC3)c(OC/C=C\I)c2)CC1
Return: 7.80

Enquiry: Same question, COc1cc(OC2CCN(S(C)(=O)=O)CC2)ccc1CC(=O)N1CCC(N2C(=O)CCc3ccccc32)CC1 this time
Return: 7.11

Enquiry: Same question, CS(=O)(=O)N1CCC(Oc2ccc(CC(=O)N3CCC(N4C(=O)CCc5ccccc54)CC3)c(OCCF)c2)CC1 this time
Return: 8.03

Enquiry: Same question, CS(=O)(=O)N1CCC(Oc2ccc(CC(=O)N3CCC(N4C(=O)CCc5ccccc54)CC3)c(OC/C=C/I)c2)CC1 this time
Return: 8.77
